biological target: β-glucuronidase (Sigma) (EC 3.2.1.31) from E. coli (Escherichia coli, UniProt P05804); construct: purchased Sigma G-7396; assay: biochemical; settings: 0.5 h; test concentration 0.10 %; 30 min, 37° C., pH 6.8; read-out: Residual activity
Sequence (P05804 whole entry): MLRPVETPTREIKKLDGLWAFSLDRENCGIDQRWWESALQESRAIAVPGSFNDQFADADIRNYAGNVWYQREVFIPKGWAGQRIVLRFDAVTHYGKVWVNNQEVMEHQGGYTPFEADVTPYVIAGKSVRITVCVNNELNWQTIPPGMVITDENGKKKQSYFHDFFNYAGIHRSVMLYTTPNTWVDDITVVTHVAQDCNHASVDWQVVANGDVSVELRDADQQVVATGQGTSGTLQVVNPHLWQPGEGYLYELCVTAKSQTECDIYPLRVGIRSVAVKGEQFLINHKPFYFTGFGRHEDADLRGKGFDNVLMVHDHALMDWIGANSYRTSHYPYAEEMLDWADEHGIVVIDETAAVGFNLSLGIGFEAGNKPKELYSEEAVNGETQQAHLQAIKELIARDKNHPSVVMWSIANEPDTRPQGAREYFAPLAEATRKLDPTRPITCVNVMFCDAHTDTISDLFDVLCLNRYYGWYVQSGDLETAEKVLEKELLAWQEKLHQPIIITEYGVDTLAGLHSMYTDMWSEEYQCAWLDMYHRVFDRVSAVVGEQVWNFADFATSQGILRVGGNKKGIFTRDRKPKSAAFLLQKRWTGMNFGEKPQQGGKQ
Structures can show the parent of a compound that is named as a salt.
endpoint.name: remaining activity at 0.1 % (%)
Please reply with the bare figure in % and do not write the unit itself.

Please review the following examples before continuing.
| molecule | result |
| --- | --- |
| OCCc1ccccc1 | 227 |
| CC(C)c1cccc(=O)c(O)c1 | 30 |
| O=P(O)(O)O[C@H]1[C@H](OP(=O)(O)O)[C@@H](OP(=O)(O)O)[C@H](OP(=O)(O)O)[C@@H](OP(=O)(O)O)[C@H]1OP(=O)(O)O | 71 |

Looking up C[C@@H]1O[C@@H](O[C@H]2[C@H](Oc3cc(O)c4c(c3)O[C@H](c3ccc(O)cc3)CC4=O)O[C@H](CO)[C@@H](O)[C@@H]2O)[C@H](O)[C@H](O)[C@H]1O [Naringin, naringenin 7-rhamnoglucoside] , I see its remaining activity at 0.1 % listed as 47

remaining activity at 0.1 % recorded for this molecule, O=C(O)C(O)c1ccc(O)cc1 (centres unmarked) [Dermosoft HMA, p-Hydroxymandelic acid sodium salt] , is 99

====

// values below are reported remaining activity at 0.01 %
target: β-glucuronidase (Sigma) (EC 3.2.1.31) from E. coli (Escherichia coli, UniProt P05804); construct: purchased Sigma G-7396; assay: biochemical; conditions: 0.5 h; test concentration 0.01 %; 30 min, 37° C., pH 6.8; read-out: Residual activity
Where a name gives a salt, the structure may show the parent alone.
The answer is to be given in %; state only the numeric part.

| compound | result |
| --- | --- |
| O=C(O)C(O)c1ccc(O)cc1 (centres unmarked) [Dermosoft HMA, p-Hydroxymandelic acid sodium salt] | 110 |
| C[C@@H]1O[C@@H](O[C@H]2[C@H](Oc3cc(O)c4c(c3)O[C@H](c3ccc(O)cc3)CC4=O)O[C@H](CO)[C@@H](O)[C@@H]2O)[C@H](O)[C@H](O)[C@H]1O [Naringin, naringenin 7-rhamnoglucoside] | 94 |
| OCCc1ccccc1 | 121 |

The reported β-glucuronidase (Sigma) (EC 3.2.1.31) from E. coli (Escherichia coli, UniProt P05804) remaining activity at 0.01 % of O=P(O)(O)O[C@H]1[C@H](OP(=O)(O)O)[C@@H](OP(=O)(O)O)[C@H](OP(=O)(O)O)[C@@H](OP(=O)(O)O)[C@H]1OP(=O)(O)O is 90

Item CC(C)c1cccc(=O)c(O)c1 ; assay system β-glucuronidase (Sigma) (EC 3.2.1.31) from E. coli (Escherichia coli, UniProt P05804); remaining activity at 0.01 % reported as 156

====

molecular target: β-glucuronidase (Sigma) (EC 3.2.1.31) from E. coli (Escherichia coli); construct: purchased Sigma G-7396; experiment: biochemical; conditions: test concentration 0.10 %; 30 min, 37° C., pH 6.8
endpoint.name: Residual activity (%)
Kindly provide the numeric value in % only, without the unit symbol.

| compound | u | Residual activity |
| --- | --- | --- |
| C=CCc1ccc(O[C@@H]2O[C@H](CO)[C@@H](O)[C@H](O)[C@H]2O)c(OC)c1 [Eugenyl Glucoside] | % | 53 |

Reported β-glucuronidase (Sigma) (EC 3.2.1.31) from E. coli (Escherichia coli) Residual activity for item CC(O)C(=O)[O-].[K+] (centres unmarked) [Purasal P Hipure 60, Potassium lactate] was 88

Per the reported β-glucuronidase (Sigma) (EC 3.2.1.31) from E. coli (Escherichia coli) data, O=C1CC[C@@H](C(=O)[O-])N1.O=C1CC[C@@H](C(=O)[O-])N1.[Zn+2] has Residual activity of 8

GET /values?item= O=C([O-])C(O)C(O)C(O)C(O)C(O)CO.O=C([O-])C(O)C(O)C(O)C(O)C(O)CO.[Mg+2] (centres unmarked) [Magnesium glucoheptonate, magnesium glucoheptonate] &system= β-glucuronidase (Sigma) (EC 3.2.1.31) from E. coli (Escherichia coli) returns Residual activity: 50

====

target: β-glucuronidase (Sigma) (EC 3.2.1.31) from E. coli (Escherichia coli, UniProt P05804); construct: purchased Sigma G-7396; assay: biochemical; settings: test concentration 0.01 %; 30 min, 37° C., pH 6.8
endpoint.name: Residual activity (%)
Record the value in %, omitting the unit from your answer.

// Residual activity value for CC(C(=O)[O-])N(CC(=O)[O-])CC(=O)[O-].[Na+].[Na+].[Na+] (stereo not shown) [Trilon M] : 99

Given item O=C1CC[C@@H](C(=O)[O-])N1.O=C1CC[C@@H](C(=O)[O-])N1.[Zn+2] [Zincidone] , the value recorded as its Residual activity is 79

====

biological target: β-glucuronidase (Sigma) (EC 3.2.1.31) from E. coli (Escherichia coli, UniProt P05804); construct: purchased Sigma G-7396; assay: biochemical; conditions: test concentration 1.00 %; 30 min, 37° C., pH 6.8
Cut-off 50% on Residual activity, inclusive. At or above means y; below means n.

As a guide, the following entries are already answered.
| compound | label.class |
| --- | --- |
| CC(O)C(=O)[O-].[K+] (stereo not shown) [Purasal P Hipure 60, Potassium lactate] | y |
| O=C1CC[C@@H](C(=O)[O-])N1.O=C1CC[C@@H](C(=O)[O-])N1.[Zn+2] | n |
| O=C([O-])CC(O)(CC(=O)[O-])C(=O)[O-].[K+].[K+].[K+] [Tripotassium citrate, tripotassium citrate] | n |
| O=C([O-])CN(CC(=O)[O-])CC(=O)[O-].[Na+].[Na+].[Na+] [Trilon A, Nitrilotriacetic acid 3 Na, reference compound] | y |

Item CC(C(=O)[O-])N(CC(=O)[O-])CC(=O)[O-].[Na+].[Na+].[Na+] (stereo not shown) with Residual activity of 50% or above?
y

====

Listed below: remaining activity at 1 % values for each entry.
Biological target: β-glucuronidase (Sigma) (EC 3.2.1.31) from E. coli (Escherichia coli)
Construct: purchased Sigma G-7396
Assay: biochemical
Conditions: 0.5 h; test concentration 1.00 %; 30 min, 37° C., pH 6.8; read-out: Residual activity
Protocol: Investigation of the inhibitory action of the β-glucuronidase inhibitors (in vitro) […] For the evaluation, the phenolphthalein formed from the substrate phenolphthalein glucuronide by β-glucuronidase was determined spectrophotometrically (λ=540 nm). […] The reaction was started by addition of the enzyme and incubation was carried out for 30 min at 37° C. […] In the photometric end point determination, the amount of phenolphthalein liberated was determined at the wavelength of λ=540 nm and at 37° C. […]
Counter-ions that a name gives are not always drawn.
Unit % implied. Number only.

| compound | u | remaining activity at 1 % |
| --- | --- | --- |
| O=C(O)C(O)c1ccc(O)cc1 (stereo not shown) [Dermosoft HMA, p-Hydroxymandelic acid sodium salt] | % | 56 |
| CC(C)c1cccc(=O)c(O)c1 [Hinokitiol (DMSO)] | % | 2 |
| O=P(O)(O)O[C@H]1[C@H](OP(=O)(O)O)[C@@H](OP(=O)(O)O)[C@H](OP(=O)(O)O)[C@@H](OP(=O)(O)O)[C@H]1OP(=O)(O)O [Phytic acid, myo-inositol-hexaphosphoric acid] | % | 16 |

Lab note: next compound to report on.
The reported remaining activity at 1 % value, β-glucuronidase (Sigma) (EC 3.2.1.31) from E. coli (Escherichia coli), for OCCc1ccccc1 [Phenylethyl alcohol, 2-phenylethyl alcohol] reads 49

====

As shown below, each of these compounds has a reported Residual activity value.
molecular target: β-glucuronidase (Sigma) (EC 3.2.1.31) from E. coli (Escherichia coli, UniProt P05804); construct: purchased Sigma G-7396; assay: biochemical; conditions: test concentration 0.10 %; 30 min, 37° C., pH 6.8
Output spec: scalar in %, unitless text.

Known results for compounds:
| compound | assayed.system | result |
| --- | --- | --- |
| O=C([O-])CC(O)(CC(=O)[O-])C(=O)[O-].[K+].[K+].[K+] [Tripotassium citrate, tripotassium citrate] | β-glucuronidase (Sigma) (EC 3.2.1.31) from E. coli (Escherichia coli, UniProt P05804) | 86 |
| O=C([O-])CN(CC(=O)[O-])CC(=O)[O-].[Na+].[Na+].[Na+] [Trilon A, Nitrilotriacetic acid 3 Na, reference compound] | β-glucuronidase (Sigma) (EC 3.2.1.31) from E. coli (Escherichia coli, UniProt P05804) | 90 |
| CC(C(=O)[O-])N(CC(=O)[O-])CC(=O)[O-].[Na+].[Na+].[Na+] (stereo not shown) | β-glucuronidase (Sigma) (EC 3.2.1.31) from E. coli (Escherichia coli, UniProt P05804) | 91 |

// next item, Residual activity requested
So for O=C([O-])CN(CCN(CC(=O)[O-])CC(=O)[O-])CC(=O)[O-].[Na+].[Na+].[Na+].[Na+] [Trilon B, EDTA-4 Na, reference compound] , the logged Residual activity turned out to be 86
